Target system: GLP-1R (Homo sapiens)
Sequence (P43220 24-463): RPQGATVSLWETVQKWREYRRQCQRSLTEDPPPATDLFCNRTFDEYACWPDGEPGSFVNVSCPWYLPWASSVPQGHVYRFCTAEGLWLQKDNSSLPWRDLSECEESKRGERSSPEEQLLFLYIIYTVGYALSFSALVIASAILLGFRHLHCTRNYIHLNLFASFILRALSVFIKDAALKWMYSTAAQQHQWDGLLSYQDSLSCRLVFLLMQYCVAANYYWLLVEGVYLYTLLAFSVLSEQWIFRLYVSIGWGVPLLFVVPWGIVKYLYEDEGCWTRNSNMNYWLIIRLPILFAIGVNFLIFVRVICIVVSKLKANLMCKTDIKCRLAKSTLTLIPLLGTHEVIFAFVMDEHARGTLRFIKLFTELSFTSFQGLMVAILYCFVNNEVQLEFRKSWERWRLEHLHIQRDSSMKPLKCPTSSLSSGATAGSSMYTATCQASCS
Experiment notes: GLP-1R Activation - cAMP Assay
Format: cell-based
Condition context: cAMP increase in CHO cells stably expressing GLP-1R; each compound run on one of the two cAMP assays (Assay 1 or Assay 2, not specified)
Procedure: GLP-1R Activation—cAMP Assay 1 GLP-1R activation by compounds of the present disclosure were quantified by measuring cAMP increase in CHO cells stably expressing GLP-1R (MultiSpan product #C1267-1a). […] The tested GLP-1 compound was added to the cells in a 10-point dose response followed by a 30 minutes incubation at 37° C., 5% CO2. cAMP concentration increase was then detected using Cisbio's cAMP Gs Dynamic Kit (product #62AM4PEC) according to the manufacturer's protocol. […]
Listing: log10(EC50) of selected compounds
Quick note: numbers are log10 of EC50, with nM as the unit.

Here's what some known entries look like.
[[record]]
compound = "N#Cc1ccc(COc2cccc(-c3cc(F)c(Cc4nc5ccc(C(=O)O)cc5n4C4COC5(CC5)C4)cc3F)n2)c(F)c1 (stereo not shown)"
test_result = 1.58

[[record]]
compound = "CC1(C)COC[C@H]1n1c(Cc2cc(F)c(-c3ccc(F)c(OCc4ccc(C#N)cc4)n3)cc2F)nc2c(F)cc(C(=O)O)cc21"
test_result = -0.81

[[record]]
compound = "CC1(C)COC[C@H]1n1c(Cc2cc(F)c(-c3cccc(OCc4cnc(-n5ccnn5)cc4C(F)(F)F)n3)cc2F)nc2ccc(C(=O)O)cc21"
test_result = -0.58


## Task // map COCCn1c(Cc2cc(F)c(-c3ccc(F)c(OCc4cnc(-n5ccnn5)cc4Cl)c3)cc2F)nc2ccc(C(=O)O)cc21 to recorded log10(EC50) (system: GLP-1R (Homo sapiens))
## Result 0.49

## Task # iterate: COCCn1c(Cc2cc(F)c(-c3cccc(OCc4cnc(-n5nnc6c5CCCC6)cc4Cl)n3)cc2F)nc2ccc(C(=O)O)cc21
## Result 0.19

## Task Another: COCCn1c(Cc2c(F)cc(-c3cccc(OCc4ccc(C#N)cc4F)n3)c3ncnn23)nc2ccc(C(=O)O)cc21
## Result 0.71

## Task CC1(C)COC[C@H]1n1c(Cc2c(F)cc(-c3cccc(OCc4cnc(-n5ccnn5)cc4Cl)n3)c(F)c2F)nc2ccc(C(=O)O)cc21 , same question.
## Result -1.09

## Task Try this compound too: N#Cc1ccc(COc2cccc(-c3cc(F)c(Cc4nc5ccc(C(=O)O)cc5n4[C@@H]4COC[C@@H]4OCC(F)F)cc3F)n2)c(F)c1 [Example 540]
## Result -1.28

## Task Check CC1(C)COC[C@H]1n1c(Cc2cc(F)c(-c3cccc(OCc4c(F)cc(F)cc4F)n3)cc2F)nc2ccc(C(=O)O)cc21 too.
## Result -0.50

## Task Would you kindly repeat that for N#Cc1ccc(COc2cccc(-c3cc(F)c(Cc4nc5ccc(C(=O)O)cc5n4C4COC5CC4C5)cc3F)n2)c(F)c1 (stereo not shown) ?
## Result -0.48

## Task Cool, now CC1(C)COCC1n1c(Cc2cc(F)c(-c3cccc(OCc4ccc(C#N)cc4F)n3)cc2F)nc2ccc(C(=O)O)c(F)c21 (stereo not shown) [Example 165]
## Result -0.26

## Task Same again, this time with CO[C@H](C)Cn1c(Cc2cc(F)c(-c3cccc(OCc4ccc(-n5ccnn5)cc4F)n3)cc2F)nc2c(F)cc(C(=O)O)cc21
## Result -0.28

## Task Entry to check: COCCn1c(Cc2cc(F)c(-c3cccc(OCc4ccc(-c5cnn(CC(F)F)c5)cc4F)n3)cc2F)nc2ccc(C(=O)O)cc21
## Result 0.78
